All values here come from the supplement of paper PMC10567573.

B1: KRT18 (parent)
chain: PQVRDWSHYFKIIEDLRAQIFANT

- Variants of: B1
- TEST DESCRIPTION: protein stability index of a GFP-peptide fusion (GPS, HEK-293T) (PSI 1-6); higher = more stable;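 note: lentivirally expressed fusions sorted by FACS into six bins by GFP to DsRed ratio, PSI derived from sequencing read proportions per bin multiplied by bin number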
- CONDITION: c terminus: a fixed tail appended
ENDPOINT NAME: protein stability index
Answer as a number with no unit attached.

Look over these answered cases.
| VARIANT ID | ENDPOINT NAME | ASSAY VALUE |
| --- | --- | --- |
| I20L | protein stability index | 2 |
| T24V | protein stability index | 2.04 |
| P1H | protein stability index | 1.99 |
| R17L | protein stability index | 1.96 |
| R4C | protein stability index | 1.99 |

Query string: Fill in the blank: the reported protein stability index of "N23W" is ____.
Result string: 1.95
